Assign t1/2 to each entry below.
- Tested system: T1, human IL-33 (R&D Systems, #3625-IL-010/CF) (human) (UniProt O95760)
- T1 sequence (looked up): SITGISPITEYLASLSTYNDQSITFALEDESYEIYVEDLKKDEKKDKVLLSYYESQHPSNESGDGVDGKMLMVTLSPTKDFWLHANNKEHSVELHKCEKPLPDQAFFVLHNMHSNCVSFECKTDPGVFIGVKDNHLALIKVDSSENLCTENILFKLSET
- Assay summary: SPR Biacore T200, 25 C
Number in min, nothing else.

Challenge: Report t1/2 for H4H9660P (antibody, from another filing, IgG4, V domains shown) VH: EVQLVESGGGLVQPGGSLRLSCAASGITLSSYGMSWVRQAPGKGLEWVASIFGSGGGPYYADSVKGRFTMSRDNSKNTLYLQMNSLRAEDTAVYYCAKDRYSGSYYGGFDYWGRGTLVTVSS VL: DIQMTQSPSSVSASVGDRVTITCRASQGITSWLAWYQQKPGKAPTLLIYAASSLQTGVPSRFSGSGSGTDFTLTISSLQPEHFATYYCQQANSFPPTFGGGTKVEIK please.
Response given: 30

Challenge: Report t1/2 for H4H9676P (antibody, from another filing, IgG4, V domains shown) VH: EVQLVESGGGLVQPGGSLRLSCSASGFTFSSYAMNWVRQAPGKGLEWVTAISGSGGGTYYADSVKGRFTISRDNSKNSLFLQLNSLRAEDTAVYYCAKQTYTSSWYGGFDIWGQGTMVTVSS VL: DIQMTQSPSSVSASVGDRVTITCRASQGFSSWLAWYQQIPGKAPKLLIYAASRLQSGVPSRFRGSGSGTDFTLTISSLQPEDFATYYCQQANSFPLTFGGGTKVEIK please.
Response given: 12

Challenge: Report t1/2 for H4H9670P (antibody, from another filing, IgG4, V domains shown) VH: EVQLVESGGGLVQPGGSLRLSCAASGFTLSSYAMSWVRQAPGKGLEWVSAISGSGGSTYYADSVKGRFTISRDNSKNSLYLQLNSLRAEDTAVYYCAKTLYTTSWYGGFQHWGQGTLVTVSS VL: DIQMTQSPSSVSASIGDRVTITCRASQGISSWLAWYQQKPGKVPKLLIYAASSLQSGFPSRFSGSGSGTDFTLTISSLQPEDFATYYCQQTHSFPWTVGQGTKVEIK please.
Response given: 22

Source of measurements: patent US20190092852A1
